biological target: tankyrase-2 (Homo sapiens); construct: purchased BPS Bioscience, Inc. 80566; assay: Tankyrase-2 enzyme inhibition test (Tankyrase-2 Chemiluminescent Assay Kit); assay type: biochemical; conditions: autoribosylation of GST-tankyrase-2 fusion protein, chemiluminescence
Sequence (Q9H2K2 whole entry, the tested form may be a part): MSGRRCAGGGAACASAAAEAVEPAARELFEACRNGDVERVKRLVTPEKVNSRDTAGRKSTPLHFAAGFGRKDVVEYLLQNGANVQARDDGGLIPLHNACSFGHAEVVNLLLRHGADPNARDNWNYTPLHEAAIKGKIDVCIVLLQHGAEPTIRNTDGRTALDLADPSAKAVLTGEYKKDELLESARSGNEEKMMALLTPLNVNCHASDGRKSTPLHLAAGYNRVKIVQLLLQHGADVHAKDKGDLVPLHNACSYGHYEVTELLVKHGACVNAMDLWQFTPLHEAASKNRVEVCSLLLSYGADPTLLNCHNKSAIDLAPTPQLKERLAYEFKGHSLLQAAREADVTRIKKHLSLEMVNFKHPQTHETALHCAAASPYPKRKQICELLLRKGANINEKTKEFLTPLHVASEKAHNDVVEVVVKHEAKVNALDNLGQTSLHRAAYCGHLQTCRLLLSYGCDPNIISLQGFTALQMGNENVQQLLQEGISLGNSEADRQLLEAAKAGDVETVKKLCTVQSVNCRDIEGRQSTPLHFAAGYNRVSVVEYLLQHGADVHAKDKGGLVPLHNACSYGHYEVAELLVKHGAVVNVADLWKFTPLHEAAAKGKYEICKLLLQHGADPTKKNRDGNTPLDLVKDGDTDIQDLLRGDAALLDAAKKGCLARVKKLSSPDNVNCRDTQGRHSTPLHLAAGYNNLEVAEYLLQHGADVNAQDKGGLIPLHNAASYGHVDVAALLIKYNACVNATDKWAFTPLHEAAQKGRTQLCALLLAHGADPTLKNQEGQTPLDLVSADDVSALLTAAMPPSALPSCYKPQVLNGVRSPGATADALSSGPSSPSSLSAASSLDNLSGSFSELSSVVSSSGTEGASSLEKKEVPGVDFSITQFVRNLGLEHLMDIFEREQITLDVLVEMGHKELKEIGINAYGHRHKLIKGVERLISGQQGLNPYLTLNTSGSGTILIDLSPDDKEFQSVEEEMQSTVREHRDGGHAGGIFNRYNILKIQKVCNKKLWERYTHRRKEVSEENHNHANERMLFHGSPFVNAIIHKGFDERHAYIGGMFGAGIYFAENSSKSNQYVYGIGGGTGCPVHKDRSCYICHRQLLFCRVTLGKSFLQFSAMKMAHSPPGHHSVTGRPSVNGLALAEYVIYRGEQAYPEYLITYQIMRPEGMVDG
List of Inhibition ratio (%) at 1 μmol/L values.
Only the number, expressed in %, is required.

# count of solved cases: 5
| substanceSmiles | assayedSystem | Inhibition ratio (%) at 1 μmol/L |
| --- | --- | --- |
| COc1cc2ncnc(N3CCC(CN4Cc5nccnc5N(c5ccnc(C#N)c5)C4=O)CC3)c2cc1OC | tankyrase-2 (Homo sapiens) | 92 |
| N#Cc1cccc(N2C(=O)N(CC3CCN(c4ncnc5cc(C(=O)O)ccc45)CC3)Cc3ccccc32)c1 | tankyrase-2 (Homo sapiens) | 81 |
| COc1cc2ncnc(N3CCC(CN4Cc5ccccc5N(C5CCOCC5)C4=O)CC3)c2cc1OC | tankyrase-2 (Homo sapiens) | 71 |
| CC(=O)Nc1ccc2ncnc(N3CCC(CN4Cc5cccnc5N(c5ccnc(C#N)c5)C4=O)CC3)c2c1 | tankyrase-2 (Homo sapiens) | 82 |
| COc1cc2ncnc(N3CCC(CN4Cc5ccccc5N(c5ccc(C(=O)O)c(C#N)c5)C4=O)CC3)c2cc1OC | tankyrase-2 (Homo sapiens) | 92 |

// query Consider the compound shown here: `COc1cc2ncnc(N3CCC(CN4Cc5ccncc5N(c5ccnc(C#N)c5)C4=O)CC3)c2cc1OC` What is its recorded Inhibition ratio (%) at 1 μmol/L?
// result 93

// query Any idea what Inhibition ratio (%) at 1 μmol/L was measured for `N#Cc1cc(N2C(=O)N(CC3CCN(c4ncnc5c4NC(=O)CO5)CC3)Cc3ccccc32)ccn1` ?
// result 88
